Data credit: ChEMBL document CHEMBL6078707

Assay: Clearance in male Sprague-Dawley rat plasma at 3 mg/kg, iv measured after 480 mins by LC-ESI/MS-MS analysis
Assay type: ADME, organism-based
Measurement label: clearance (mL/min/kg)
Numbers only, in mL/min/kg.

Request: # return recorded clearance for entry Cc1ccc2nc(-c3ccc(F)cc3)c(CC(=O)N3CCCC3)n2c1.O=C(O)C(O)C(O)C(=O)O
Response: 5.56

* * *

Test: MRT in male Sprague-Dawley rat plasma at 3 mg/kg, ip measured after 480 mins by LC-ESI/MS-MS analysis
Type: ADME, organism-based
Measurement label: MRT (min)
Numbers only, in min.

Request: # return recorded MRT for entry Cc1ccc2nc(-c3ccc(F)cc3)c(CC(=O)N3CCCC3)n2c1.O=C(O)C(O)C(O)C(=O)O
Response: 50.9

* * *

Test: Terminal half-life in male Sprague-Dawley rat brain at 3 mg/kg, ip measured after 480 mins by LC-ESI/MS-MS analysis
Format: ADME, organism-based
Conditions: read-out: beta t1/2
Measurement label: half-life
# answer = value followed by unit

Request: # return recorded half-life for entry Cc1ccc2nc(-c3ccc(F)cc3)c(CC(=O)N3CCCC3)n2c1.O=C(O)C(O)C(O)C(=O)O
Response: 10.9 h

* * *

Test: Terminal half-life in male Sprague-Dawley rat plasma at 3 mg/kg, ip measured after 480 mins by LC-ESI/MS-MS analysis
Assay type: ADME, organism-based
Conditions: read-out: beta t1/2
Measurement label: half-life
# answer = value followed by unit

Request: # return recorded half-life for entry Cc1ccc2nc(-c3ccc(F)cc3)c(CC(=O)N3CCCC3)n2c1.O=C(O)C(O)C(O)C(=O)O
Response: 4.49 h

* * *

Test: Terminal half-life in male Sprague-Dawley rat at 5 mg/kg, ip measured after 480 mins by LC-ESI/MS-MS analysis
Type: ADME, organism-based
Settings: in vivo, read-out: beta t1/2
Measurement label: half-life (min)
Answers are plain numbers, in min.

Request: # return recorded half-life for entry Cc1ccc2nc(-c3ccc(F)cc3)c(CC(=O)N3CCCC3)n2c1.O=C(O)C(O)C(O)C(=O)O
Response: 30.6

* * *

Test: Cmax in male Sprague-Dawley rat brain at 3 mg/kg, ip measured after 480 mins by LC-ESI/MS-MS analysis
Assay type: ADME, organism-based
Measurement label: Cmax (ng/g)
Numbers only, in ng/g.

Request: # return recorded Cmax for entry Cc1ccc2nc(-c3ccc(F)cc3)c(CC(=O)N3CCCC3)n2c1.O=C(O)C(O)C(O)C(=O)O
Response: 220

* * *

Assay: Permeability across basolateral to apical side in MDCKII-MDR1 cells at pH 7.4
Assay type: ADME, cell-based, Canis lupus familiaris
Settings: dog, MDCK-MDR1, pH 7.4
Measurement label: Papp B→A (×10⁻⁶ cm/s)
Numbers only, in ×10⁻⁶ cm/s.

Request: # return recorded Papp B→A for entry Cc1ccc2nc(-c3ccc(F)cc3)c(CC(=O)N3CCCC3)n2c1.O=C(O)C(O)C(O)C(=O)O
Response: 29.7

* * *

Assay: Clearance in male Sprague-Dawley rat at 5 mg/kg, ip measured after 480 mins by LC-ESI/MS-MS analysis
Type: ADME, organism-based
Settings: in vivo
Measurement label: CL/F (mL/min)
Give bare numbers, in mL/min.

Request: # return recorded CL/F for entry Cc1ccc2nc(-c3ccc(F)cc3)c(CC(=O)N3CCCC3)n2c1.O=C(O)C(O)C(O)C(=O)O
Response: 2.35
